- PROTOCOL: PET hydrolysis, aromatic products released after 48 h (umol product/mg enzyme); higher = more PET depolymerization activity
- TEST PARAMETERS: substrate: aFilm; 40 °C; pH 7.5
REPORTED ENDPOINT: PET hydrolysis

Record excerpt, results attached:
Any idea what its PET hydrolysis is? The sequence is ADNPYQRGPDPTVASVAATNGPFATAQLNVPSGNGFNGGTIYYPTDTSLGTWGAVAIVPGYTARFANEEAWMGPRLASFGFVVIGVETNSTTDWDTARGTQLLAALDYLTQKSSVRDRVDASRLAVIGHSMGGGGVVYAASQRPSLKAAIGLAPYAPSGNLSNVKVPMLIQGGQNDTVVTPSYLDGLYPTLPSSTPGAYVQYSGADHLFWTKANNIELRTQIPWLKIFLDNDTRYTQFMCPTLKDTASVAKYSAKCSLIPSAGSTTAPTTQPATSAPATTSPTTQPPSQPG [TEP083]
< 3

Please give the result for ADNPYQRGPDPTPALVASVNGPFATASVSVPAGYGFGGGMIYYPTDTSQGTFGGIAISPGYTALFSAELAWMGPWLASHGFVVIGIETNNRNDFDEARGTQLLAALDYLTQQSPVRNRVDPNRLAVAGHSMGGGGALNAAIRRPSLKAAVGLAPFSPSSNLANDRVPTMVFSGQQDTVVTPSYVTGLYNSLPSTTQSAYLEIAGGDHGFPVGRPNQVMIRTMLPFVKIFVDYDTRYSPFLCPLSDTSGVVTYRSTCPLTPPGLPTTPPTTPPTTVPTSPPTGGPTTPPTTPSQPGGACTATYRTVNSWPGGFQGEVTVTAGNSAINGWTVRWTLDSGQAITQVWNGEVSTSGSTVSVRNAPYNGSLPPSGSTTFGFLSSGSPSSPSLTCTSP [DP059] too.
< 3

New cases:
So what does the record say about PET hydrolysis for LTPSPTPPPTGGTGGCPADAICRGETPGSYSANGPYGSRSYTLSRIQTPGGATVYYPANAEPPFSGLVFTPPYTGSQFMYRAWGPFFASHGIVMVTMDTRTTLDSVDQRAAQQKQVLDALKAENTRSASPLRGKLDTSRLGAVGWSMGGGATWINSAEYSGLKTAMSLAGHNLSALDINARGSNTRVPTLIMNGALDATYLGGLGQSLGVYNNIPRGIPKVIYEVSSAGHFSWGSPTSAGRSVAQIALAFQKTFLDGDTRWATYIRRPSSGVATWRTANLP [ESM175] ?
< 3

Likewise for EEPASGYQRGPAPTTSSIESSRGPFSTSQVSISGLSANGFGGADVYYPTDTSQGTFGAVAISPGYTARKSSMAWLASRLASQGFVVINIDTNTTSDQPASRGRQLLAALDQVTKDSRVANRIDPTRLAVVGHSMGGGGALEASRSRPSLQAAIPLTPWNTTKSFSGNQVPTLVVGAERDTVASVRSHAEPFYRSLPSAPGKAYLELAGASHFAPNTSNTTIAKHSIAWLKLFVDNDERYRQFVCPGPTSDRAVSDYQNTCSSFTP [DP053] ?
< 3
